Values from the supplement of paper PMC6555819

test system: PPARg DBDmut:RXRa IVT, anti-PPARg (DBD mutation: PPARg1 K132A/R137A, NR concentration 270 nM, RXRa partner concentration 90 nM); assay: PBM binding z-score (relative to random genomic background probes); higher = stronger binding; sequences stand for … in GC…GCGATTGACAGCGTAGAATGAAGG
# class assignment by measured PBM binding z-score: LOW (below -0.9), MEDIUM (-0.9 to below 0.4), HIGH (0.4 or more)

Exercise: read the entry `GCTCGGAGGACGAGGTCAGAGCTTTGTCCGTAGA` and state which class it falls under.
LOW

====

system: RARb homodimer (NR concentration 270 nM); assay: PBM binding z-score (relative to random genomic background probes); higher = stronger binding; sequences stand for … in GC…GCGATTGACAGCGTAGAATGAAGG
REPORTED_ENDPOINT: PBM binding z-score
Give bare numbers.

Please review the following examples before continuing.
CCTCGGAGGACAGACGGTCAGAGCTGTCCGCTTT | 0.948
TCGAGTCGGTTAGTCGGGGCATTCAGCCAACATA | -0.0359

Here's the next entry for you.
What does the data say about its PBM binding z-score? Entry: `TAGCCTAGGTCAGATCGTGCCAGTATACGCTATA`
2.22

====

Kindly state PBM binding z-score for each of the entries shown.
test system: PPARg DBDmut IVT, anti-PPARg (DBD mutation: PPARg1 K132A/R137A, NR concentration 270 nM); test: PBM binding z-score (relative to random genomic background probes); higher = stronger binding; sequences stand for … in GC…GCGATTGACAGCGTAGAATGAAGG
Give bare numbers.

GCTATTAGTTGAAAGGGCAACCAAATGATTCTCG | 0.602
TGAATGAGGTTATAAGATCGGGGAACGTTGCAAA | 0.272
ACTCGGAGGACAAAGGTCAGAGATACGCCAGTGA | -0.524

Record PBM binding z-score per entry; entries follow.
1. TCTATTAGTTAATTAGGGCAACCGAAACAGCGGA
2. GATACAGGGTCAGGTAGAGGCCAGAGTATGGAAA
3. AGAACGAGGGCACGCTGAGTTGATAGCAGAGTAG
4. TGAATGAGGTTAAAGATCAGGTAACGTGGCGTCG

1. 1.52
2. 0.631
3. -0.41
4. 0.742

Report PBM binding z-score for `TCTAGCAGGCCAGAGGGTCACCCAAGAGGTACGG` tested on PPARg DBDmut IVT, anti-PPARg (DBD mutation: PPARg1 K132A/R137A, NR concentration 270 nM).
-0.348

====

test system: PPARa:RXRa (NR concentration 270 nM, RXRa partner concentration 90 nM); assay: PBM binding z-score (relative to random genomic background probes); higher = stronger binding; sequences stand for … in GC…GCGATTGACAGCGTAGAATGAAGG
REPORTED_ENDPOINT: PBM binding z-score
One number for each entry.

Please review the following examples before continuing.
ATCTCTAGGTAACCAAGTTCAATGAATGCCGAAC | 1.76
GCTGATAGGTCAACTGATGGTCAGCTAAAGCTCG | 4.84
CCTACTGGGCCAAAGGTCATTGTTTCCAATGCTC | 6.74
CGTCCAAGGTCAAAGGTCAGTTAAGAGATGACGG | 7.44

Record PBM binding z-score per entry; entries follow.
1. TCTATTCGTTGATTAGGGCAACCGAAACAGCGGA
2. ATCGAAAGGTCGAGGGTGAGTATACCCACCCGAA
3. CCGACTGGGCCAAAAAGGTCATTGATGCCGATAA
4. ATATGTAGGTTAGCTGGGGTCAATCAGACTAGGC
5. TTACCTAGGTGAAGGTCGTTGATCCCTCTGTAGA
6. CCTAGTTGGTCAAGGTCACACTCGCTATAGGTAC
7. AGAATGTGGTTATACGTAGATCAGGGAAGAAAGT
8. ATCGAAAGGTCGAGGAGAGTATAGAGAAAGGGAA

1. 0.827
2. 4.67
3. 4.53
4. 5.14
5. 2.32
6. 3.86
7. 0.259
8. 4.24

====

tested on: FXR:RXRa (NR concentration 270 nM, RXRa partner concentration 90 nM); test: PBM binding z-score (relative to random genomic background probes); higher = stronger binding; sequences stand for … in GC…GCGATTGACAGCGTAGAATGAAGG
REPORTED_ENDPOINT: PBM binding z-score

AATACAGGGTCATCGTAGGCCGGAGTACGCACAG | 6.87

Record PBM binding z-score per entry; entries follow.
1. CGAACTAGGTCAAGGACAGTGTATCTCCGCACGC
2. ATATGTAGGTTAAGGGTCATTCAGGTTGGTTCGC

1: 3.62; 2: 5.11

Record PBM binding z-score per entry; entries follow.
1. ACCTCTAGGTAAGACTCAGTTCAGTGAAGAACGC
2. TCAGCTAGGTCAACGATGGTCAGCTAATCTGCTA
3. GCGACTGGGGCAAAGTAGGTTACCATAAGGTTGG
4. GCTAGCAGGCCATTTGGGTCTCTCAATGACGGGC
5. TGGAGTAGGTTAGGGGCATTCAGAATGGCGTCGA
6. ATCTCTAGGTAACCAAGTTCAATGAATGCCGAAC
7. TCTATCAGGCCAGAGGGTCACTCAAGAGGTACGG
8. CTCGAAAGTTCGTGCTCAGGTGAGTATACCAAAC

1. -0.0705
2. 3.13
3. 0.147
4. -0.43
5. 1.13
6. 0.814
7. 1.28
8. 0.841

Record PBM binding z-score per entry; entries follow.
1. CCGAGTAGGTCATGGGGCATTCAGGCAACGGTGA
2. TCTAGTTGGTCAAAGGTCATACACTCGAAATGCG
3. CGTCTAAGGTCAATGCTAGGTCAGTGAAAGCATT

[4.82, 5.83, 7.02]

Record PBM binding z-score per entry; entries follow.
1. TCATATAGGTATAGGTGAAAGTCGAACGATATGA
2. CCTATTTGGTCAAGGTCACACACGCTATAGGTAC

0.449
4.34

Record PBM binding z-score per entry; entries follow.
1. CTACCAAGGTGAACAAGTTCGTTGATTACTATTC
2. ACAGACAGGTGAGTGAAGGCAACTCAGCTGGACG
3. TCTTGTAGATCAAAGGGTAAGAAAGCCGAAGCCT

1. 0.442
2. -0.0161
3. 0.566

Record PBM binding z-score per entry; entries follow.
1. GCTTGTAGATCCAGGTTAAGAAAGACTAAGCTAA
2. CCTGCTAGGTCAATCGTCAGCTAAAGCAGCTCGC

1: -0.143; 2: 3.35

Record PBM binding z-score per entry; entries follow.
1. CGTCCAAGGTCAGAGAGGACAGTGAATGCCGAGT
2. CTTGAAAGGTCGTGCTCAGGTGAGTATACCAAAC
3. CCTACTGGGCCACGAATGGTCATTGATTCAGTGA
4. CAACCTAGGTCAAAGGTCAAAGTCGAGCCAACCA
5. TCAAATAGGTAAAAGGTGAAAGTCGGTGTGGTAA

[4.64, 5.86, -0.465, 8.61, 2.23]

Record PBM binding z-score per entry; entries follow.
1. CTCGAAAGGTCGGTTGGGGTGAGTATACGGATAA
2. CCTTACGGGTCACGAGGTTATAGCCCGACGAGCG

1: 3.34; 2: 6.99

====

tested on: RARa homodimer (NR concentration 270 nM); assay: PBM binding z-score (relative to random genomic background probes); higher = stronger binding; sequences stand for … in GC…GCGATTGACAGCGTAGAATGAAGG
Threshold rule: PBM binding z-score greater than or equal to -0.2 is Met; below that, Not met.

Please review the following examples before continuing.
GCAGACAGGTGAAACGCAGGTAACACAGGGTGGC | Not met
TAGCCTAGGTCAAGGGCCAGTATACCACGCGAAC | Not met
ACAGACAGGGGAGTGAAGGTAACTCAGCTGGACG | Met

I'd appreciate it if you could say whether `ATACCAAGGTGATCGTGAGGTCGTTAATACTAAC` has PBM binding z-score at least equal to -0.2.
Met

Request: `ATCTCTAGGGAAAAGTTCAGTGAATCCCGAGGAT`
Met

Request: `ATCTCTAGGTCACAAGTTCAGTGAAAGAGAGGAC`
Met

Request: `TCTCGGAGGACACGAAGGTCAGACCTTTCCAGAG`
Met

Request: `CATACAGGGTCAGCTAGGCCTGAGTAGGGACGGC`
Met

Request: `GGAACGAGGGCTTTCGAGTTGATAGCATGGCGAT`
Not met

Request: `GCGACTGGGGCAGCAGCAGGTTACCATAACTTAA`
Not met

Request: `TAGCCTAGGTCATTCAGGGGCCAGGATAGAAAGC`
Not met
